Target system: Flag-tagged ATR (Homo sapiens, UniProt Q13535)
Sequence (Q13535 whole entry): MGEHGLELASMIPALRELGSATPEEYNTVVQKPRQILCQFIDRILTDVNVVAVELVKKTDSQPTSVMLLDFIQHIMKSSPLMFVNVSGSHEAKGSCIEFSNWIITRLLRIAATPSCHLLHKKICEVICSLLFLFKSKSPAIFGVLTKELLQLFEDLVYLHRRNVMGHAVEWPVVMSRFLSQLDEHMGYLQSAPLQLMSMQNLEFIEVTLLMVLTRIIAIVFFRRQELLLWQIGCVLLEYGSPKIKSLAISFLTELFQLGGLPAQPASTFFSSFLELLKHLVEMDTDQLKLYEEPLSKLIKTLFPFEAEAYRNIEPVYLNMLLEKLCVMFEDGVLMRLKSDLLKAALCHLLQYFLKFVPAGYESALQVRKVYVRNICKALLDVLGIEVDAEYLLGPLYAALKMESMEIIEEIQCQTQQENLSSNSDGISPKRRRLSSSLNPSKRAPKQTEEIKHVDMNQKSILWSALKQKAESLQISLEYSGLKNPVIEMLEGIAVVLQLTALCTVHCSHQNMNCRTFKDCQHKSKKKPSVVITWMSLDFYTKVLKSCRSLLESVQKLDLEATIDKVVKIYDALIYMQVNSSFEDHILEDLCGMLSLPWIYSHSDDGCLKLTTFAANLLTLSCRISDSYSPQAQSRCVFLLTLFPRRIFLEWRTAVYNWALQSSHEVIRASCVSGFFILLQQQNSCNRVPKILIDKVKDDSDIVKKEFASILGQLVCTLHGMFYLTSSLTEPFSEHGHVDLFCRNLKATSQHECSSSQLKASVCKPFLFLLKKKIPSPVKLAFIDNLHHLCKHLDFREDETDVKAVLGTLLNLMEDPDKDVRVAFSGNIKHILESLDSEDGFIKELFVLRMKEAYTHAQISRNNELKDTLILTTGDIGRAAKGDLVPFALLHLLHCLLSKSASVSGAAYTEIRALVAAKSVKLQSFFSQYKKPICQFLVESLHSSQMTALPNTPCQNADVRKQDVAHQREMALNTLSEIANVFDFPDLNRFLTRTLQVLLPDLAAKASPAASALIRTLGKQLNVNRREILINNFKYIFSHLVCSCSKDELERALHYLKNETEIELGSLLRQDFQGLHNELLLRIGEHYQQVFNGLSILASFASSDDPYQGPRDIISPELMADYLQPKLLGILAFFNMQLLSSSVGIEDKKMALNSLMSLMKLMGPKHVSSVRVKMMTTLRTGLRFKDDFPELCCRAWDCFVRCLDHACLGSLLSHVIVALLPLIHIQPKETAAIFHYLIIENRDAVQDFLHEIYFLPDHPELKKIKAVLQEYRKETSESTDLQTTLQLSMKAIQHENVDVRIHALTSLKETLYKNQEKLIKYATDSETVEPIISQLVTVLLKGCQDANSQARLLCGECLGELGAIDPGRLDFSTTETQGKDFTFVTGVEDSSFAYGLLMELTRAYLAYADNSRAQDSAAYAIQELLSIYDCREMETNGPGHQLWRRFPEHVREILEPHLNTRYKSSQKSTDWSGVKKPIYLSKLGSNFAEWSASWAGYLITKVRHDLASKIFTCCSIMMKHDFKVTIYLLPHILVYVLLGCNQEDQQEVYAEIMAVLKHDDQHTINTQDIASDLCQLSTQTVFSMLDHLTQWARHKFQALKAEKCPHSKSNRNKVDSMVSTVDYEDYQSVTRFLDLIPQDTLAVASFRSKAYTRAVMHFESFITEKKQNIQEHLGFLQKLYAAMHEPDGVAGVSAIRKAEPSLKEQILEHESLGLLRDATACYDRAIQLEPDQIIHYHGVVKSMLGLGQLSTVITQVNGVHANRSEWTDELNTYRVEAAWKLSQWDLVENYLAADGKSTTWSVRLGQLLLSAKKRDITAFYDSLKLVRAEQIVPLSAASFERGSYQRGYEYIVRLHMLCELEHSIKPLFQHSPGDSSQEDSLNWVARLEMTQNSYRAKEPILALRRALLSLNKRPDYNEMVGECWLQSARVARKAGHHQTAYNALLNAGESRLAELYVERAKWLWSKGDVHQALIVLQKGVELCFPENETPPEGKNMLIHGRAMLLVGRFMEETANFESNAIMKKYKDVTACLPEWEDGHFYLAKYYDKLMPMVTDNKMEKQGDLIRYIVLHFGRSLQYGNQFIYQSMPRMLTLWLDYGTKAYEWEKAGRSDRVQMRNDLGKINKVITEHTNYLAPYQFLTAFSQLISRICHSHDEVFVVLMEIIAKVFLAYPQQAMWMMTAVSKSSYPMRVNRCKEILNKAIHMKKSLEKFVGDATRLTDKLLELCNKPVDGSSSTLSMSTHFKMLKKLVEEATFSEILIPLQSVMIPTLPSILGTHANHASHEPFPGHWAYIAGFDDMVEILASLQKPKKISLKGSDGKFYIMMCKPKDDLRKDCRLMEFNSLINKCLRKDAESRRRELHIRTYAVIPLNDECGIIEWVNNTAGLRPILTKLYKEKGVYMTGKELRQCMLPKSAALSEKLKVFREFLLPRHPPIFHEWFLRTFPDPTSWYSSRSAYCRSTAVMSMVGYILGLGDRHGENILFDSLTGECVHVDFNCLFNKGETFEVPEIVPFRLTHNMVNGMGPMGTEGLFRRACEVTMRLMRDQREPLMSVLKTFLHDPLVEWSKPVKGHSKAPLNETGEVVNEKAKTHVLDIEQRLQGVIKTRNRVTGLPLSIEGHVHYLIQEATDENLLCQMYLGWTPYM
Readout label: IC50 (nM)
The reply should contain only the number, in nM.

Let me know recorded IC50 for COC[C@H]1OC(=O)c2coc3c2[C@@]1(C)C1=C(C3=O)[C@@H]2CCC(=O)[C@@]2(C)C[C@H]1OC(C)=O [wortmannin, Wortmannin] , thanks. 1800
